- System: 317291-083-R-J1-PDC complex spheroids, viability;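 note: spheroids exposed to compounds for one week before readout; percent viability relative to DMSO vehicle wells taken as 100%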
- procedureDetails: Anticancer human tumor 317291-083-R-J1-PDC patient-derived soft tissue sarcoma cell line growth inhibition [GQUAD]
- conditionInfo: second compound 1 µM; first compound 1 µM; hits give low values
quantityKind: viability, T/C (%)
Give just the number in %; leave the unit off.

May I ask what viability, T/C has been recorded for CC1COCCN1c1cc(-c2ccnn2C)c2ccnc(-c3ccn[nH]3)c2n1 (stereo not drawn) + Cc1cnc(CNC(=O)c2c(=O)c3ccc(N4CCCN(C)CC4)nc3n3c2sc2ccccc23)cn1 ? 9.59

Record request: viability, T/C value, item COc1cc(C2c3cc4c(cc3C(OC3OC5COC(C)OC5C(O)C3O)C3COC(=O)C23)OCO4)cc(OC)c1O (stereo not drawn) + CN(C)c1ccc(Nc2c3ccc(NC(=O)CCN4CCCC4)cc3nc3cc(NC(=O)CCN4CCCC4)ccc23)cc1 15.7

Quick check: viability, T/C of Nc1ccn(C2OC(CO)C(O)C2(F)F)c(=O)n1 (stereo not drawn) + CN(C)c1ccc(Nc2c3ccc(NC(=O)CCN4CCCC4)cc3nc3cc(NC(=O)CCN4CCCC4)ccc23)cc1 ? 7.35

Each recorded value in this set is attributed to PubChem BioAssay AID2060497.
